Below: a set of entries, each annotated with reported log P (acid).
# Method Description: log P determination by LC-MS in the acidic range
# Assay type: physicochemical
# Reported Conditions: LC-MS in the acidic range
The reply should be a number, written without any unit.

Some compounds with recorded log P (acid):
- Compound: "Cc1cc(NC(=O)c2cccnc2)nn1C(C)C#N (stereo not shown)"
  log P (acid): 0.92
- Compound: "Cc1cc(NC(=O)c2ccnnc2)nn1-c1ccccn1"
  log P (acid): 1.83
- Compound: "Cc1cc(NC(=O)c2cccnc2)nn1C1CCCC1"
  log P (acid): 1.74
- Compound: "CNC(=O)Cn1nc(NC(=O)c2cccnc2)cc1C"
  log P (acid): 0.29
- Compound: "Cc1cc(NC(=O)c2cccnc2)nn1CCS(C)(=O)=O"
  log P (acid): 0.49
- Compound: "C#CCn1nc(NC(=O)c2cccnc2)cc1CC"
  log P (acid): 1.31
- Compound: "COc1ccc(Cn2ccc(NC(=O)c3cccnc3)n2)cc1"
  log P (acid): 1.55
- Compound: "Cc1cc(C)cc(-n2nc(NC(=O)c3cccnc3)cc2C)c1"
  log P (acid): 2.4

Q: Quote log P (acid) reported for "O=C(Nc1ccn(Cc2ccccc2C(F)(F)F)n1)c1cccnc1" please.
Ans: 2.09

Q: Indicate its recorded log P (acid); the compound in question is "Cc1cc(N(C)C(=O)c2cccnc2)nn1C"
Ans: 0.65

---

# Method Description: log P determination by LC-MS in the acidic range
# Format: physicochemical
# Reported Conditions: LC-MS in the acidic range
Quick rule for you: log P (acid) at 2 or higher means true, lower means false.

Recorded results for 5 compounds are shown here.
- Molecule Smiles: "Cc1cc(NC(=O)c2cccnc2)nn1CCC#N"
  Qualitative Label: "false"
- Molecule Smiles: "Cc1cc(NC(=O)c2ccnnc2)nn1Cn1ccc(C(F)(F)F)n1"
  Qualitative Label: "false"
- Molecule Smiles: "CSc1c(C#N)c(NC(=O)c2cccnc2)nn1C"
  Qualitative Label: "false"
- Molecule Smiles: "CC(C)(C)c1ccc(Cn2ccc(NC(=O)c3ccc(Cl)nc3)n2)cc1"
  Qualitative Label: "true"
- Molecule Smiles: "Cc1cc(NC(=O)c2cncc(F)c2)nn1-c1ccccc1"
  Qualitative Label: "true"

Now turn to the next compound.
Q: Confirm if log P (acid) reported for the compound "Cc1cc(NC(=O)c2cccnc2)nn1Cc1cn2cc(Cl)ccc2n1" is 2 or above.
Ans: false

---

# Method Description: log P determination by LC-MS in the acidic range
# Type: physicochemical
# Reported Conditions: pH 2.7, values given in the synthesis examples and NMR lists; read-out: HPLC-MS: log P
Quantity Name: chromatographic logP
// no unit string in output, number only

- Compound: "Cc1cc(NC(=O)c2cccnc2)n[nH]1 [Compound I-1-17, N-(5-Methyl-1H-pyrazol-3-yl)nicotinamide]"
  Quantity Name: "chromatographic logP"
  Numeric Value: 0.3
- Compound: "Cc1cc(NC(=O)c2cccnc2)nn1C(=O)C1CC1"
  Quantity Name: "chromatographic logP"
  Numeric Value: 1.65
- Compound: "Cc1cc(NC(=O)c2ccnnc2)nn1Cc1ccccc1"
  Quantity Name: "chromatographic logP"
  Numeric Value: 1.67
- Compound: "O=C1c2ccccc2C(=O)N1c1cc(Br)[nH]n1"
  Quantity Name: "chromatographic logP"
  Numeric Value: 1.83

Q: Kindly indicate its recorded chromatographic logP. Item: "O=C(Nc1ccn(Cc2ncc(C(F)(F)F)cc2Cl)n1)c1ccc(Cl)nc1"
Ans: 2.64
